The origin of these recorded values is the Kinase Knowledgebase extract (Sharma et al. 2016).

Assay system EGFR (human) (UniProt P00533); read-out recorded as pIC50.
In textbook form, pIC50 equals minus log to base ten of the concentration in mol/L.

Look up pIC50: `O=C(c1cn(-c2ccc3ncnc(Nc4ccc(OCc5ccccn5)c(Cl)c4)c3c2)cc1CCO)N1CCCC1` 7.52

Look up pIC50: `O=C(NCCN1CCCC1)c1cn(-c2ccc3ncnc(Nc4ccc(OCc5cccc(F)c5)c(Cl)c4)c3c2)cc1CCO` 8.05

Look up pIC50: OC(CN1CC=CC1)Cn1ccc(-c2ccc3ncnc(Nc4ccc(OCc5cccc(F)c5)c(Cl)c4)c3c2)c1 (configuration not stated) 7.66

Look up pIC50: `Fc1cccc(COc2ccc(Nc3ncnc4ccc(-n5ccc(CNCCN6CCOCC6)c5)cc34)cc2Cl)c1` 8.52

Look up pIC50: OC(CN1CCCCC1)Cn1ccc(-c2ccc3ncnc(Nc4ccc(OCc5cccc(F)c5)c(Cl)c4)c3c2)c1 (configuration not stated) 7.68

Look up pIC50: OCCN1CCOC(Cn2ccc(-c3ccc4ncnc(Nc5ccc6c(cnn6Cc6cccc(F)c6)c5)c4c3)c2)C1 (configuration not stated) 6.69

Look up pIC50: `O=S1(=O)CCC(CNCc2cn(-c3ccc4ncnc(Nc5ccc(F)c(Cl)c5)c4c3)cc2CCO)CC1` 6.90

Look up pIC50: `O=C(Cn1ccc(-c2ccc3ncnc(Nc4ccc(OCc5cccc(F)c5)c(Cl)c4)c3c2)c1)N1CCN(CCO)CC1` 7.29

Look up pIC50: `CN1CCN(Cc2cn(-c3ccc4ncnc(Nc5ccc(OCc6cccc(F)c6)c(Cl)c5)c4c3)cc2CCO)CC1` 7.38

Look up pIC50: OC(CN1CCN(CC2CC2)CC1)Cn1ccc(-c2ccc3ncnc(Nc4ccc(OCc5cccc(F)c5)c(Cl)c4)c3c2)c1 (configuration not stated) 7.10

Look up pIC50: `CN(C)CCc1cn(-c2ccc3ncnc(Nc4ccc(OCc5cccc(F)c5)c(Cl)c4)c3c2)cc1C(=O)N1CCOCC1` 7.24

Look up pIC50: `O=S1(=O)CCC(O)(CNCc2cn(-c3ccc4ncnc(Nc5ccc(F)c(Cl)c5)c4c3)cc2CCO)CC1` 7.12

Look up pIC50: `CS(=O)(=O)CCNC(=O)c1cc(-c2ccc3ncnc(Nc4ccc(OCc5cccc(F)c5)c(Cl)c4)c3c2)c[nH]1` 7.62

Look up pIC50: `Fc1cccc(COc2ccc(Nc3ncnc4ccc(-c5ccn(CCN6CCCC6)c5)cc34)cc2Cl)c1` 8.40

Look up pIC50: `O[C@@H](CN1CCOCC1)Cn1ccc(-c2ccc3ncnc(Nc4ccc(OCc5cccc(F)c5)c(Cl)c4)c3c2)c1` 7.51

Look up pIC50: OC1CCC(NCC(O)Cn2ccc(-c3ccc4ncnc(Nc5ccc(OCc6cccc(F)c6)c(Cl)c5)c4c3)c2)CC1 (configuration not stated) 7.31

Look up pIC50: `CCN(CC)CCc1cn(-c2ccc3ncnc(Nc4ccc(OCc5cccc(F)c5)c(Cl)c4)c3c2)cc1C(=O)N1CCOCC1` 7.82

Look up pIC50: CN1CCN(CC(O)Cn2ccc(-c3ccc4ncnc(Nc5ccc(OCc6cccc(F)c6)c(Cl)c5)c4c3)c2)CC1 (configuration not stated) 7.44

Look up pIC50: `O=C(NCCN1CCCCC1)c1cn(-c2ccc3ncnc(Nc4ccc5c(cnn5Cc5ccc(F)cc5)c4)c3c2)cc1CCO` 7.64

Look up pIC50: `CCN(CC)Cc1cn(-c2ccc3ncnc(Nc4ccc(OCc5cccc(F)c5)c(Cl)c4)c3c2)cc1CN(CC)CC` 6.90

Look up pIC50: `O=C(Cn1ccc(-c2ccc3ncnc(Nc4ccc(OCc5cccc(F)c5)c(Cl)c4)c3c2)c1)N1CCCCC1` 7.18

Look up pIC50: `CCN(CC)CCON=C1CCc2cn(-c3ccc4ncnc(Nc5ccc(OCc6cccc(F)c6)c(Cl)c5)c4c3)cc21` 7.14

Look up pIC50: `Fc1ccc(Nc2ncnc3ccc(-c4ccc[nH]4)cc23)cc1Cl` 7.96

Look up pIC50: `C[C@@H]1CN(C(=O)Cn2ccc(-c3ccc4ncnc(Nc5ccc(OCc6cccc(F)c6)c(Cl)c5)c4c3)c2)C[C@H](C)N1` 7.92

Look up pIC50: `O[C@H](CN1CCC[C@@H]1CN1CCCC1)Cn1ccc(-c2ccc3ncnc(Nc4ccc(OCc5cccc(F)c5)c(Cl)c4)c3c2)c1` 7.02

Look up pIC50: `CCN(CC)C[C@H](O)Cn1ccc(-c2ccc3ncnc(Nc4ccc5c(cnn5Cc5cccc(F)c5)c4)c3c2)c1` 7.42

Look up pIC50: `CS(=O)(=O)CCNCc1cn(-c2ccc3ncnc(Nc4ccc(OCc5cccc(F)c5)c(Cl)c4)c3c2)cc1C(F)(F)F` 7.80

Look up pIC50: `CCOC(=O)c1cn(-c2ccc3ncnc(Nc4ccc(OCc5cccc(F)c5)c(Cl)c4)c3c2)cc1C(F)(F)F` 7.51

Look up pIC50: `O=C1OCCc2cn(-c3ccc4ncnc(Nc5ccc(OCc6ccccn6)c(Cl)c5)c4c3)cc21` 8.10

Look up pIC50: `CCN(CC)CCNC(=O)c1cn(-c2ccc3ncnc(Nc4ccc(OCc5ccccn5)c(Cl)c4)c3c2)cc1CCO` 7.60

Look up pIC50: `N[C@H]1CCCN(C(=O)Cn2ccc(-c3ccc4ncnc(Nc5ccc(OCc6cccc(F)c6)c(Cl)c5)c4c3)c2)C1` 7.42

Look up pIC50: `O=C(Cn1ccc(-c2ccc3ncnc(Nc4ccc(OCc5cccc(F)c5)c(Cl)c4)c3c2)c1)N1CCOCC1` 7.66
